Reported Plant response rating, Cocklebur values follow for various molecules
Test system: cocklebur (Xanthium strumarium)
Test: Test B postemergence
Assay type: in vivo
Conditions: Rate 125 g/ha, scale 0 (no effect) to 100 (complete control), 13 to 15 days
ASSAY_READOUT: Plant response rating, Cocklebur

> print(dat)
                                    molecule                    target.system  measured.number
 1  CCC(CC)c1ccn(C2CCN(c3cccc(OC)c3)C2=O)n1 (stereo not shown)  cocklebur (Xanthium strumarium)               10
 2  O=C1C(n2ccc(C3CCC3)n2)SCN1c1cccc(OC(F)F)c1 (stereo not shown)  cocklebur (Xanthium strumarium)               20
 3  Cc1ccn(C2CCN(c3cccc(C(F)(F)F)c3)C2=O)n1 (stereo not shown)  cocklebur (Xanthium strumarium)                0
 4  CCOc1cc(N2CCC(n3ccc(C(C)(C)C)n3)C2=O)ccc1C (stereo not shown)  cocklebur (Xanthium strumarium)               90
 5  CC(C)(C)c1ccn(C2CCN(c3ccc(Cl)c(Cl)c3)C2=O)n1 (stereo not shown)  cocklebur (Xanthium strumarium)                0
 6  O=C1C(n2ccc(C3CC3)n2)OCN1c1cccc(C(F)(F)F)c1 (stereo not shown)  cocklebur (Xanthium strumarium)                0
 7  CC(C)c1ccn(C2OCN(c3cccc(C(F)(F)F)c3)C2=O)n1 (stereo not shown)  cocklebur (Xanthium strumarium)                0
 8  CC(C)(C)c1ccn(C2CCN(c3cc(Cl)cc(Cl)c3)C2=O)n1 (stereo not shown)  cocklebur (Xanthium strumarium)               10
 9  O=C1C(n2ccc(C3CCCCC3)n2)OCN1c1cccc(C(F)(F)F)c1 (stereo not shown)  cocklebur (Xanthium strumarium)                0
10  CC(C)(C)c1ccn(C2CCN(c3ccc(F)c(Cl)c3)C2=O)n1 (stereo not shown)  cocklebur (Xanthium strumarium)                0
11  O=C1C(n2ccc(C3CCCCC3)n2)SCN1c1cccc(OC(F)(F)F)c1 (stereo not shown)  cocklebur (Xanthium strumarium)                0
12  CCC(C)c1nn(C2CCN(c3cccc(C(F)(F)F)c3)C2=O)cc1Cl (stereo not shown)  cocklebur (Xanthium strumarium)                0
13  O=C1C(n2ccc(C3CCC3)n2)SCN1c1cccc(C(F)(F)F)c1 (stereo not shown)  cocklebur (Xanthium strumarium)               10
14  Cc1ccc(N2CCC(n3ccc(C(C)(C)C)n3)C2=O)cc1OC(F)F (stereo not shown)  cocklebur (Xanthium strumarium)               30
15  CCC(CC)c1ccn(C2CCN(c3cccc(OC(C)C)c3)C2=O)n1 (stereo not shown)  cocklebur (Xanthium strumarium)               10
16  CC(C)(C)c1ccn(C2CCN(c3cccc(Cl)c3)C2=O)n1 (stereo not shown)  cocklebur (Xanthium strumarium)                0
17  CC(C)(C)c1ccn(C2CCN(c3ccc(Cl)c(Br)c3)C2=O)n1 (stereo not shown)  cocklebur (Xanthium strumarium)                0
18  CCCC(C)c1ccn(C2OCN(c3cccc(OC(F)(F)F)c3)C2=O)n1 (stereo not shown)  cocklebur (Xanthium strumarium)               20
19  CCC(CC)c1ccn(C2CCN(c3ccc(C)c(OC)c3)C2=O)n1 (stereo not shown)  cocklebur (Xanthium strumarium)               90
